- ASSAY INFO: Pharmacokinetics on single dose in mice (intravenous and oral)
- Type: in vivo, ICR mice
- EXPERIMENTAL SETUP: male, ICR, mouse, plasma, Oral, 10 mg/kg
- Source text: 1. Experimental Aim: The present experiment aimed to obtain the pharmacokinetic profile of the subject compounds in ICR mice (both intravenous and oral) 3.1.2 Test System Species: SPF grade male ICR mice Body weight/weekly age: about 30 g 4. […] Data Processing The samples were detected for drug concentration at each time point by LC-MS/MS. […]
Below, each of the molecules is paired with its reported AUC(0-t) value.

SMILES REPRESENTATION | UOM | AUC(0-t)
C=CCn1c(=O)c2cnc(Nc3ccc(N4CC5CC(C4)N5C)cc3)nc2n1-c1cccc(C(C)(C)O)n1 | ng·h/mL | 285
C=CCn1c(=O)c2cnc(Nc3ccc(N4CC5CC(C4)N5C)cc3)nc2n1-c1ccc2ccn(CC)c2n1 | ng·h/mL | 430
C=CCn1c(=O)c2cnc(Nc3ccc(N4CC5CC(C4)N5C4CCC4)cc3)nc2n1-c1cccc(C(C)(C)O)n1 | ng·h/mL | 534
C=CCn1c(=O)c2cnc(Nc3ccc(N4CC5CC(C4)N5C)cc3)nc2n1-c1ccc2cnn(CC)c2n1 | ng·h/mL | 1640
C=CCn1c(=O)c2cnc(Nc3ccc(N4CC5CC(C4)N5CCF)cc3)nc2n1-c1cccc(C(C)(C)O)n1 | ng·h/mL | 482

###

Some molecules, each annotated with its measured IC50.
- Test system: MIA PaCa2 cells
- ASSAY INFO: Anti-proliferative effect on MIA PaCa2 cells by Cell Titer-Glo
- Format: cell-based
- EXPERIMENTAL SETUP: Homo sapiens, MIA PaCa-2, 72 h, 3 days, read-out: MIA PaCa 2 (IC50, inhibition of proliferation in vitro)
ASSAY ENDPOINT: IC50

MOLECULE | ASSAY ENDPOINT | REPORTED
C=CCn1c(=O)c2cnc(Nc3ccc(N4C[C@@H]5C[C@H]4CN5C)cc3)nc2n1-c1ccc2ccn(CC)c2n1 | IC50 | 1 to 2 µM
C=CCn1c(=O)c2cnc(Nc3ccc(N4CC5CC(C4)N5C)cc3)nc2n1-c1cccc(C(C)(C)O)n1 | IC50 | 0.1 to 1 µM
C=CCn1c(=O)c2cnc(Nc3ccc(N4C[C@@H]5C[C@H]4CN5CCO)cc3)nc2n1-c1cccc(C(C)(C)O)n1 | IC50 | 0.1 to 1 µM
C=CCn1c(=O)c2cnc(Nc3ccc(N4C[C@@H]5C[C@H]4CN5CC(F)(F)F)cc3)nc2n1-c1cccc(C(C)(C)O)n1 | IC50 | 1 to 2 µM
C=CCn1c(=O)c2cnc(Nc3ccc(N4C5CCC4CN(C)C5)cc3)nc2n1-c1cccc(C(C)(C)O)n1 | IC50 | 1 to 2 µM
C=CCn1c(=O)c2cnc(Nc3ccc(N4CCN(C5CN6CCC5CC6)CC4)cc3)nc2n1-c1cccc(N=S(C)(C)=O)n1 (stereo not shown) | IC50 | 0.1 to 1 µM
C=CCn1c(=O)c2cnc(Nc3ccc(N4CCN(C)CC4)cc3)nc2n1-c1ccc2c(n1)OC(C)(C)CO2 | IC50 | > 10 µM

###

- ASSAY INFO: Pharmacokinetics on single dose in mice (intravenous and oral)
- Type: in vivo, ICR mice
- EXPERIMENTAL SETUP: male, ICR, mouse, plasma, Oral, 10 mg/kg

SMILES REPRESENTATION | UOM | MRT
C=CCn1c(=O)c2cnc(Nc3ccc(N4CC5CC(C4)N5C)cc3)nc2n1-c1ccc2cnn(CC)c2n1 | h | 1.92
C=CCn1c(=O)c2cnc(Nc3ccc(N4CC5CC(C4)N5C)cc3)nc2n1-c1ccc2ccn(CC)c2n1 | h | 1.18
C=CCn1c(=O)c2cnc(Nc3ccc(N4CC5CC(C4)N5C4CCC4)cc3)nc2n1-c1cccc(C(C)(C)O)n1 | h | 1.14
C=CCn1c(=O)c2cnc(Nc3ccc(N4CC5CC(C4)N5C)cc3)nc2n1-c1cccc(C(C)(C)O)n1 | h | 1.1
C=CCn1c(=O)c2cnc(Nc3ccc(N4CC5CC(C4)N5CCF)cc3)nc2n1-c1cccc(C(C)(C)O)n1 | h | 0.9
